# experimental-details: qHTS of pediatric cancer cell lines to identify multiple opportunities for drug repurposing: Primary screen for OHS-50 cells (AID 1347103); further: nearly all actives have a fitted effect of over 40% in size
# condition-label: OHS-50 osteosarcoma viability, CellTiter-Glo luminescence, 48 h; series mostly up to 57.3 µM
Inconclusive results are not listed. Activity calls are given as the source filed them. The call rests on the fitted dose curve; in most records, active means well fitted cell-killing curve with a large enough effect; inconclusive means small, poorly fitted or top-dose-only effect; inactive means no such curve, though single readings can be large or run the other way.
Hello, when you answer, please use one of the following outcomes: active, inactive

I'd appreciate the recorded outcome for C1=C2CCCN[C@H]2[C@@H]2C[C@H]1[C@@H]1CCCCN1C2 from this test.
inactive

And what about the compound COc1cc2cc(c1Cl)N(C)C(=O)C[C@H](OC(=O)C(C)C)[C@]1(C)O[C@H]1[C@H](C)[C@@H]1C[C@@](O)(NC(=O)O1)[C@H](OC)C=CC=C(C)C2 ?
active

And what about the compound Cc1nc(-c2ccc(-c3ccc(C(=O)N4CCc5cc6c(cc54)C4(CCN(C)CC4)CO6)cc3)c(C)c2)no1 ?
inactive

And what about the compound O=C(Nc1ccncc1)C(=O)c1cn(Cc2ccc(Cl)cc2)c2ccccc12 ?
active

And what about the compound O=C1CCC[C@@H]2[C@H]3CCCN4CCC[C@@H](CN12)[C@@H]34 ?
inactive

And what about the compound Nc1c(Cl)c(Cl)c(Cl)c(Cl)c1Cl ?
inactive

And what about the compound O=C(O)C(Cl)Cl ?
inactive

And what about the compound COCCOCCO ?
inactive

And what about the compound CC(C)(O)C=CC(=O)[C@](C)(O)[C@H]1[C@H](O)C[C@]2(C)[C@@H]3CC=C4[C@@H](C=C(O)C(=O)C4(C)C)[C@]3(C)C(=O)C[C@@]12C ?
active

And what about the compound CC[C@@H]1[C@@H](C)O[C@@](O)([C@@H](C)[C@H](O)[C@H](C)[C@H]2OC(=O)C=CC=C[C@@H](C)[C@@H]([C@@H](C)[C@@H](O)[C@H](C)[C@@]3(O)C[C@H](O[C@H]4C[C@H](O)[C@H](O)[C@H](C)O4)[C@H](CC)[C@@H](C)O3)OC(=O)C=CC=C[C@@H]2C)C[C@H]1O[C@H]1C[C@H](O)[C@H](O)[C@H](C)O1 ?
active

And what about the compound Nc1ccc(Cl)cc1 ?
inactive

And what about the compound COC1=C[C@@H]2[C@@H]3Cc4ccc(OC)c(O)c4[C@]2(CCN3C)CC1=O ?
inactive

And what about the compound Cc1c(C(=O)Nc2cccc(C(F)(F)F)c2)cc(-c2ccccc2)n1CCCN1CCOCC1 ?
active

And what about the compound C[C@](O)(COc1ccc(C#N)cc1)C(=O)Nc1ccc(C#N)c(C(F)(F)F)c1 ?
active

And what about the compound CC(C)N[C@@H]1CCn2c(=O)[nH]c3cccc(c32)[C@@H]1O ?
active

And what about the compound O=c1[nH]c2ccccc2n1C1CCN(Cc2ccc(-c3[nH]c4cc5ncnc5cc4nc3-c3ccccc3)cc2)CC1 ?
active

And what about the compound CO/C=C(/C(=O)OC)c1ccccc1Oc1cc(Oc2ccccc2C#N)ncn1 ?
active

And what about the compound CN1CCN(c2ccc([N+](=O)[O-])c3no[n+]([O-])c23)CC1 ?
active

And what about the compound CCCC[N+]1(C)[C@H]2CC(OC(=O)[C@H](CO)c3ccccc3)C[C@H]1[C@H]1O[C@H]12 (stereo not given in full) ?
inactive

And what about the compound CC[N+]1(CCOC(=O)C(O)(c2ccccc2)c2ccccc2)CCCCC1 ?
inactive
